Test system: lambsquarters (Chenopodium album)
Experiment: Test C pre/postemergence
Type: in vivo
Settings: Preemergence, 125 g ai/ha; scale 0 to 100
Entries annotated with measured Plant response rating, Lambsquarters
When you answer, write just the number.

Worked set:
>>> observed_value("COC(=O)c1nc(C2CC2C)nc(N)c1Br (stereo not drawn) [Compound 28]")
100
>>> observed_value("CCCOC(=O)c1nc(C2CC2)nc(N)c1Cl [Compound 75]")
100
>>> observed_value("Nc1nc(-c2ccc(Cl)cc2)nc(C(=O)[O-])c1Cl.[Na+] [Compound 117]")
100
>>> observed_value("CCCOC(=O)c1nc(C2CC2)nc(N)c1Br [Compound 15]")
100
>>> observed_value("CN(C)N=Cc1nc(C2CC2)nc(N)c1Br [Compound 50]")
100

Then this molecule:
Could you share which Plant response rating, Lambsquarters value was measured for CCOC(=O)C(Cl)c1nc(C2CC2)nc(N)c1Br (stereo not drawn) [Compound 31] ?
40

====

Test system: cocklebur (Xanthium strumarium)
Experiment: Test C pre/postemergence
Type: in vivo
Details: Preemergence, 16 g ai/ha; scale 0 to 100, 0 no effect, 100 complete control
MEASURED PROPERTY: Plant response rating, Cocklebur
When you answer, write just the number.

Could you share which Plant response rating, Cocklebur value was measured for CCOC(=O)C(OC(C)=O)c1nc(C2CC2)nc(N)c1Br (centres unmarked) ?
0

Query `COC(=O)c1nc(C2CC2)nc(N=CN(C)C)c1Br` next
15

====

Test system: giant foxtail (Setaria faberii)
Assay: Test B pre/postemergence
Format: in vivo
Conditions: Postemergence, 500 g ai/ha; scale 0 to 100
MEASURED PROPERTY: Plant response rating, Foxtail, Giant
When you answer, write just the number.

>>> observed_value("CC(C)COC(=O)c1nc(C2CC2)nc(N)c1Br")
70
>>> observed_value("CCOC(=O)C(Cl)(Cl)c1nc(C2CC2)nc(N)c1Br")
50
>>> observed_value("CCOC(=O)c1nc(C2CC2)nc(NNC(C)=O)c1Br")
0
>>> observed_value("CNN=Cc1nc(C2CC2)nc(N)c1Br")
70
>>> observed_value("CC(C)OC(=O)c1nc(C2CC2)nc(N)c1Br")
50

Could you share which Plant response rating, Foxtail, Giant value was measured for `CC=NNc1nc(C2CC2)nc(C(=O)OC)c1Br` ?
20

Query `Nc1nc(C2CC2)nc(C=NO)c1Br` next
30

====

Tested on: giant foxtail (Setaria faberii)
Experiment: Test B pre/postemergence
Assay type: in vivo
Conditions: Setaria faberi, post-emergence, Postemergence, 125 g ai/ha; scale 0 to 100 (0 no effect, 100 complete control); read-out: Foxtail, Giant plant response rating
Entries annotated with measured pest or weed control at 125 g/ha
Output spec: scalar in %, unitless text.

Could you share which pest or weed control at 125 g/ha value was measured for `CNc1nc(C2CC2)nc(C(=O)OC)c1Br` ?
40

====

System: Surinam grass (Brachiaria decumbens)
Test: Test B pre/postemergence
Assay type: in vivo
Settings: Postemergence, 500 g ai/ha; scale 0 to 100
MEASURED PROPERTY: Plant response rating, Surinam Grass
When you answer, write just the number.

>>> observed_value("CCOC(=O)C(C)c1nc(C2CC2)nc(N)c1Br (centres unmarked) [Compound 32]")
10
>>> observed_value("CC=NNc1nc(C2CC2)nc(C(=O)OC)c1Br [Compound 124]")
0

Return Plant response rating, Surinam Grass measured with Surinam grass (Brachiaria decumbens) given this compound: CCOC(=O)C(Cl)(Cl)c1nc(C2CC2)nc(N)c1Br [Compound 34]
50

Query CCOC(=O)c1nc(-c2ccc(Cl)cc2)nc(N)c1Br [Compound 37] next
70

Query CNN=Cc1nc(C2CC2)nc(N)c1Br [Compound 49] next
60

Query COCc1nc(C2CC2)nc(N)c1Br [Compound 11] next
50

Query COC(OC)c1nc(C2CC2)nc(N)c1F [Compound 46] next
10

Query CCOC(=O)Cc1nc(-c2ccc(Cl)cc2)nc(N)c1Br [Compound 41] next
10

====

System: pigweed (Amaranthus retroflexus)
Assay: Test C pre/postemergence
Type: in vivo
Conditions: Postemergence, 125 g ai/ha; scale 0 to 100 (0 no effect, 100 complete control)
MEASURED PROPERTY: Pigweed plant response rating

Worked set:
>>> observed_value("CCCCOC(=O)c1nc(C2CC2)nc(N)c1Br")
95
>>> observed_value("CN(C)N=Cc1nc(C2CC2)nc(N)c1Br")
80
>>> observed_value("Nc1nc(-c2ccc(Br)cc2)nc(C(=O)O)c1Br")
100

Then this compound:
Could you share which Pigweed plant response rating value was measured for `COC(=O)c1nc(-c2ccc(Cl)cc2)nc(N)c1Br` ?
100

====

Entries annotated with measured pest or weed control at 125 g/ha
Tested on: wild oat (Avena fatua)
Assay: Test B postemergence
Format: in vivo
Conditions: Avena fatua, post-emergence, 125 g ai/ha, scale 0 to 100 (0 no effect, 100 complete control), read-out: Oat, Wild plant response rating
Output spec: scalar in %, unitless text.

Worked set:
>>> observed_value("Nc1nc(C2CC2)nc(C(=O)[O-])c1Cl.[Na+] [Compound 77, monosodium salt]")
60
>>> observed_value("CCOC(=O)c1nc(C2CC2)nc(NN)c1Br")
0
>>> observed_value("CCOC(=O)c1nc(C(C)(C)C)nc(N)c1Br")
0
>>> observed_value("Nc1nc(C2CC2)nc(C=O)c1Br")
30
>>> observed_value("CCOC(=O)c1nc(C2CC2)nc(N)c1F")
60

Could you share which pest or weed control at 125 g/ha value was measured for `COC(=O)c1nc(C2CC2)nc(NO)c1Br` ?
60

Query `CCOC(=O)c1nc(-c2ccccc2)nc(N)c1Br` next
0

Query `Nc1nc(C2CC2)nc(C(=O)OCc2ccccc2)c1Br` next
10

====

Entries annotated with measured pest or weed control at 125 g/ha
System: goosegrass (Eleusine indica)
Test: Test C pre/postemergence
Assay type: in vivo
Details: Eleusine indica, post-emergence, Postemergence, 125 g ai/ha; scale 0 to 100 (0 no effect, 100 complete control); read-out: Goosegrass plant response rating
Text: […]
Output spec: scalar in %, unitless text.

Worked set:
>>> observed_value("COC(=O)c1nc(C2CC2)nc(N)c1I")
0
>>> observed_value("COC(=O)c1nc(C(C)C)nc(N)c1Br")
0

Could you share which pest or weed control at 125 g/ha value was measured for `CCOC(=O)c1nc(C2CC2)nc(N)c1Cl` ?
20

Query `CCOC(=O)c1nc(C2CC2)nc(N)c1F` next
0

Query `Nc1nc(C2CC2)nc(C(=O)O)c1Br` next
0

====

Test system: yellow nutsedge (Cyperus esculentus)
Assay: Test C pre/postemergence
Assay type: in vivo
Details: Cyperus, post-emergence; Postemergence, 250 g ai/ha; scale 0 to 100; read-out: Plant response rating, Nutsedge, Yellow
Entries annotated with measured pest or weed control at 250 g/ha
Output spec: scalar in %, unitless text.

Worked set:
>>> observed_value("CCOC(=O)c1nc(C2CC2)nc(N)c1Br")
5
>>> observed_value("CCOC(=O)c1nc(C2CC2)nc(N)c1F")
5
>>> observed_value("COC(=O)c1nc(C2CC2)nc(N)c1Br")
20
>>> observed_value("COC(=O)c1nc(C(C)C)nc(N)c1Br")
0
>>> observed_value("CNc1nc(C2CC2)nc(C(=O)OC)c1Br")
0

Then this compound:
Could you share which pest or weed control at 250 g/ha value was measured for `Nc1nc(C2CC2)nc(C(=O)OCc2ccccc2)c1Br` ?
0

====

System: kochia (Kochia scoparia)
Experiment: Test D pre/postemergence
Format: in vivo
Conditions: Postemergence, 125 g ai/ha, scale 0 to 100 (100 = complete control)
MEASURED PROPERTY: Plant response rating, Kochia
When you answer, write just the number.

Worked set:
>>> observed_value("COC(=O)c1nc(C2CC2C)nc(N)c1Br (centres unmarked)")
75
>>> observed_value("Nc1nc(C2CC2)nc(C=O)c1Br")
35
>>> observed_value("CCOC(=O)c1nc(C2CC2)nc(N)c1Br")
100
>>> observed_value("COC(=O)c1nc(-c2ccc(Cl)cc2)nc(N)c1Cl")
100

Then this molecule:
Return Plant response rating, Kochia measured with kochia (Kochia scoparia) given this molecule: `CCOC(=O)Cc1nc(C2CC2)nc(N=CN(C)C)c1Br`
50

====

System: barnyardgrass (Echinochloa crus-galli)
Assay: Test B pre/postemergence
Assay type: in vivo
Details: Preemergence, 125 g ai/ha; scale 0 to 100 (0 no effect, 100 complete control)
MEASURED PROPERTY: Plant response rating, Barnyardgrass
When you answer, write just the number.

Worked set:
>>> observed_value("COC(=O)c1nc(C2CC2C)nc(N)c1Br (centres unmarked) [Compound 28]")
10
>>> observed_value("CCOC(=O)C(OC(C)=O)c1nc(C2CC2)nc(N)c1Br (centres unmarked) [Compound 47]")
0
>>> observed_value("CC(C)OC(=O)c1nc(C2CC2)nc(N)c1Br [Compound 14]")
10
>>> observed_value("COC(=O)c1nc(-c2ccc(Cl)cc2)nc(N)c1Br [Compound 83]")
30
>>> observed_value("Nc1nc(C2CC2)nc(C(=O)O)c1Br [Compound 8]")
70

Could you share which Plant response rating, Barnyardgrass value was measured for CCOC(=O)c1nc(C2CC2)nc(N=CN(C)C)c1Br [Compound 40] ?
50

Query CCOC(=O)c1nc(C2CC2)nc(NCCN(C)C)c1Br [Compound 38] next
0

Query COCc1nc(C2CC2)nc(N)c1Br [Compound 11] next
0
